Would you mind telling me the reported pIC50 of each entry?
- measurement-target: ErbB2 with Exon 20 YVMA insertion (HER2-YVMA) (Homo sapiens (Human), UniProt P04626, INS775YVMA)
- Sequence (P04626 other isoform, or with tags, fused parts or gaps ins YVMA behind 775): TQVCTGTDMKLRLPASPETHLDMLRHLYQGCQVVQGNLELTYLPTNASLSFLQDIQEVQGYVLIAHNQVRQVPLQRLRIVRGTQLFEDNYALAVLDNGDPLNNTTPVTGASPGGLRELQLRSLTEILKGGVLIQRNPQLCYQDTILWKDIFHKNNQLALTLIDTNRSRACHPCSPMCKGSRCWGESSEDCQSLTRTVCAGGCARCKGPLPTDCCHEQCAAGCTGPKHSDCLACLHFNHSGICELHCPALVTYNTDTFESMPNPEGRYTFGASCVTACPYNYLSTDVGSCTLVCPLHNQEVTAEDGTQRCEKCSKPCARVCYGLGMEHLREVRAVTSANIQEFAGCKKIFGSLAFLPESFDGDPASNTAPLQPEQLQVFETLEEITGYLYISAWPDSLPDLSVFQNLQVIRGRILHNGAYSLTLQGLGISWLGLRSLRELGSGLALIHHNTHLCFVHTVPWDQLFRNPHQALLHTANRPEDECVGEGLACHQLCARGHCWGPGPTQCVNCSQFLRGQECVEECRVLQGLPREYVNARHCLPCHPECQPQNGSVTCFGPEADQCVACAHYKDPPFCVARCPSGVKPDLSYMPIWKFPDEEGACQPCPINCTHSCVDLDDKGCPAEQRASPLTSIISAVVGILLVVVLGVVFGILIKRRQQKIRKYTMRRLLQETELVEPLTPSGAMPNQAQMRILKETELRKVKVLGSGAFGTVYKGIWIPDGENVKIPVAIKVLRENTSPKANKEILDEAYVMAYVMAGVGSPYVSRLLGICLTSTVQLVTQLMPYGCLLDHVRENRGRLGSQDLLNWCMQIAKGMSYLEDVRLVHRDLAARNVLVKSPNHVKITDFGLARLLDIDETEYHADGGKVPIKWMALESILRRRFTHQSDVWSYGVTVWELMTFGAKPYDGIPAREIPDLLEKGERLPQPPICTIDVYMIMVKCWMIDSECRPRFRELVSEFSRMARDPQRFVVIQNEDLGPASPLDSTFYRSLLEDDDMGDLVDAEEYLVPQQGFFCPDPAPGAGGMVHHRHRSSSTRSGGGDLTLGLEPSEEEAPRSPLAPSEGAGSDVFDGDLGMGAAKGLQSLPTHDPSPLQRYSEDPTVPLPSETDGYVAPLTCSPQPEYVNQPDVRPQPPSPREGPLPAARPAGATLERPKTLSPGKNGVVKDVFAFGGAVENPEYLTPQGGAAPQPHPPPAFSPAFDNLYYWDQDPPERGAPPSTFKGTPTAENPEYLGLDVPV
- procedure-details: Cellular phosphorylation assay, constitutive ErbB2 phosphorylation (Y1196) in engineered NIH 3T3 cells, Assay 4
- Assay type: cell-based
- Procedure: Serially diluted compounds were added to the plates for 1 hour at 37° C./5% CO2. EGFR WT cells were stimulated with 100 ng/ml rEGF for an additional 10 minutes at 37° C./5% CO2. After compound incubation, medium was removed from the cells, which were then fixed in 3.7% formaldehyde in PBS at room temperature for 20 minutes. […] Cells were then washed and analyzed for fluorescence at both wavelengths using the Odyssey Infrared Imaging System (LI-COR Biosciences). […]
Numbers only, as −log10 of the molar value.

{"molecule": "Cc1cc(Nc2ncnc3cnc(N=S4(=O)CCOCC4)nc23)ccc1Oc1ccc2c(c1)ncn2C [Example 138]", "pIC50": 7.24}
{"molecule": "O[C@H]1CN(c2ncc3ncnc(Nc4ccc(Oc5ccn6ncnc6c5)c(Cl)c4)c3n2)CC[C@@H]1F [Example 338]", "pIC50": 7.19}
{"molecule": "COc1ncc2ncnc(Nc3ccc(Oc4ccc5csnc5c4)c(C)c3)c2n1 [Example 7, 2,2,2-trifluoroacetate]", "pIC50": 6.84}
{"molecule": "CO[C@H]1CCCN(c2ncc3ncnc(Nc4ccc(Oc5ccc6c(c5)ncn6C)c(C)c4)c3n2)C1 [Example 248]", "pIC50": 7.18}

Batch lookup, pIC50 per entry.
1. CN(CC(C)(C)O)c1ncc2ncnc(Nc3ccc(Oc4ccn5ncnc5c4)c(Cl)c3)c2n1 [Example 405]
2. Cc1cc(Nc2ncnc3cnc(N(C)[C@@H]4CN(C)C[C@@H]4F)nc23)ccc1Oc1ccc2c(c1)ncn2C [Example 305]
3. Cc1cc(Nc2ncnc3cnc(N(C)C4COC4)nc23)ccc1Oc1ccc2c(c1)ncn2C [Example 175]
4. Cc1cc(Nc2ncnc3cnc(N4C[C@H]5CCCN5C4=O)nc23)ccc1Oc1ccc2c(c1)ncn2C [Example 66]
5. Cc1cc(Nc2ncnc3cnc(N4CC[C@H](C#N)C4)nc23)ccc1Oc1ccc2c(c1)ncn2C [Example 173]

Response line:
1: 6.97; 2: 7.97; 3: 7.86; 4: 7.38; 5: 7.65

Batch lookup, pIC50 per entry.
1. Cc1cc(Nc2ncnc3cnc(N4CC[C@@H](C(F)F)C4)nc23)ccc1Oc1ccc2c(c1)ncn2C [Example 253]
2. Cc1cc(Nc2ncnc3cnc(N4CC[Si](C)(C)CC4)nc23)ccc1Oc1ccc2c(c1)ncn2C [Example 474]
3. Cc1cc(Nc2ncnc3cnc(N4CCN[C@H](C(F)(F)F)C4)nc23)ccc1Oc1ccn2ncnc2c1 [Example 355]
4. Cc1cc(Nc2ncnc3cnc(N4[C@H]5CC[C@@H]4[C@@H](O)C5)nc23)ccc1Oc1ccc2c(c1)ncn2C (racemic) [Example 105]
5. Cc1cc(Nc2ncnc3cnc(N4CCC45CCOC5)nc23)ccc1Oc1ccc2c(c1)ncn2C (racemic) [Example 111]

Response line:
1: 7.41; 2: 6.25; 3: 6.74; 4: 7.41; 5: 7.89

Batch lookup, pIC50 per entry.
1. Cc1cc(Nc2ncnc3cnc(N4C[C@@H]5[C@H](C4)[C@H]4CC[C@@H]5O4)nc23)ccc1Oc1ccc2c(c1)ncn2C [Example 380]
2. O[C@H]1C[C@H]2C[C@@H]1CN2c1ncc2ncnc(Nc3ccc(Oc4ccn5ncnc5c4)c(Cl)c3)c2n1 [Example 335]
3. Cc1cc(Nc2ncnc3cnc(N4CC[C@@](O)(C(F)F)C4)nc23)ccc1Oc1ccc2c(c1)ncn2C (racemic) [Example 106]
4. CON1CCN(c2ncc3ncnc(Nc4ccc(Oc5ccc6c(c5)ncn6C)c(C)c4Cl)c3n2)CC1 [Example 98]

Response line:
[7.36, 6.84, 7.74, 6.57]

Batch lookup, pIC50 per entry.
1. Cc1cc(Nc2ncnc3cnc(N4CCC4)nc23)ccc1Oc1ccc2c(c1)ncn2C [Example 36]
2. Cc1cc(Nc2ncnc3cnc(N4CCO[C@H]5C[C@H]54)nc23)ccc1Oc1ccc2c(c1)ncn2C (single isomer, unassigned) [Example 60a]
3. Cc1cc(Nc2ncnc3cnc(N4CCN[C@H](C)C4)nc23)ccc1Oc1ccc2c(c1)ncn2C [Example 277]
4. Cn1cnc2cc(Oc3ccc(Nc4ncnc5cnc(N6CC[C@H](C#N)C6)nc45)cc3Cl)ccc21 [Example 152, 2,2,2-trifluoroacetate]

Response line:
1: 7.38; 2: 7.80; 3: 7.55; 4: 7.50
